All values here come from patent US20250257075A1.

Measured clearance of individual entries
Assay: Single Dose Pharmacokinetics (SDPK) study in female BALB/c mice
Assay type: in vivo
Details: mouse; 3 mg/kg, iv, female BALB/c mice, plasma
State just the number; it will be interpreted in mL/min/kg.

compound | units | measured number
CCn1c(-c2cc(N3CCOCC3)cnc2[C@H](C)OC)c2c3cc(c(F)cc31)-c1csc(n1)C[C@H](NC(=O)[C@H](C(C)C)N(C)C(=O)[C@H]1C[C@@H](C#CC(F)(F)F)C1)C(=O)N1CCC[C@H](N1)C(=O)OCC(C)(C)C2 (atropisomer, axis not shown; (M)) [Example 11] | mL/min/kg | 14.2

Now turn to the next compound.
[in] Quick one: clearance of CC#CC(=O)N1CC[C@H](C(=O)N(C)[C@H](C(=O)N[C@H]2Cc3nc(cs3)-c3ccc4c(c3)c(c(-c3cccnc3[C@H](C)OC)n4CC)CC(C)(C)COC(=O)[C@@H]3CCCN(N3)C2=O)C(C)C)C1 [Example A168, reference compound] ?
[out] 77
